Reference source for all entries: PubChem BioAssay (Tox21)

# assayOverview: qHTS assay to identify small molecule antagonists of the retinoid acid receptor (RAR) signaling pathway - cell viability counter screen (AID 1159551); note: nearly all actives have a fitted effect of over 35% in size
# condition: C3RL4 cells viability, ATP luminescence (CellTiter-Glo), 6 h; series mostly up to 92.4 µM
Records with an inconclusive call do not appear. Active and inactive are the calls of the source. Calls come from the whole dose curve; as a rule, active = well fitted cell-killing curve with a large enough effect in the repeat runs; inconclusive = weak or mixed curves, or effect the other way; inactive = flat fitted curve, though single readings scatter.
Write down the outcome that applies. Available outcomes: active, inactive

Example entries begin here.
Q: Recorded test outcome, item ON=C1CCCC1
Ans: inactive

Q: Lab log entry: CC1=NC(C)OC1C (stereo unspecified) — outcome as called in the assay?
Ans: inactive

Q: Which outcome did this test record for the molecule NC(=NCCCCCCN=C(N)/N=C(\N)Nc1ccc(Cl)cc1)/N=C(\N)Nc1ccc(Cl)cc1 ?
Ans: inactive

Q: Which outcome did this test record for the molecule Nc1ccccc1O ?
Ans: inactive

Q: Look up the recorded call for CC(C)(C)c1ccc(C(=O)O)cc1 in this test.
Ans: inactive

---
Q: Which outcome was entered for the molecule Cc1[nH]nc2c1N=C(c1ccccc1Cl)c1cc([N+](=O)[O-])ccc1N2 in this test?
Ans: active

Q: Outcome logged for COc1cccc(N)c1 in this assay:
Ans: inactive

Q: Called result for CCN(C(=O)c1cc(C)cc(OC[C@H](C)Nc2ccncc2)c1)C(C)C
Ans: inactive

Q: Returns: the outcome recorded for Cc1cc(N)c(S(=O)(=O)O)cc1Cl in this assay.
Ans: inactive

Q: State the result this test recorded for O=C(OCC(COC(=O)c1ccccc1)(COC(=O)c1ccccc1)COC(=O)c1ccccc1)c1ccccc1 .
Ans: inactive

Q: // return assay outcome for O=c1cccccc1O
Ans: inactive

====

# assayOverview: qHTS assay to identify small molecule antagonists of the estrogen receptor alpha (ER-alpha) signaling pathway using the BG1 cell line (AID 743080);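 note: BG1 cells stimulated with 17beta-estradiol alongside compound; nearly all actives have a fitted effect of over 25% in size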
# condition: BG1Luc4E2 ERE-luciferase antagonist mode, luminescence; series mostly up to 70.3 µM
Records with an inconclusive call do not appear. Calls of active or inactive are those of the source. Calls follow the shape of the full dose curve.
Choose one outcome from this list and give only that: Yes (active), No (inactive)

// known answers, use as guide
Q: Would you mind telling me which call this test gave CCCCCCCCCCCCCCCC(=O)OC[C@H](O)[C@H]1OC(=O)C(O)=C1O ?
Ans: No

Q: Dear all, I need the recorded test outcome for CCN(CCC#N)c1ccc(N=Nc2c(Cl)cc([N+](=O)[O-])cc2Cl)cc1 , thank you.
Ans: No

Q: Status in this test for Oc1c(Cl)cc(Cl)c2cccnc12 ?
Ans: Yes

Q: How was CC(C)(C)C(=O)OCOC(=O)[C@@H]1N2C(=O)[C@@H](NC(=O)[C@H](N)c3ccccc3)[C@H]2SC1(C)C classified in this test?
Ans: No

***
Q: Assay result, entry CCOc1nc2cccc(C(=O)OC(C)OC(=O)OC3CCCCC3)c2n1Cc1ccc(-c2ccccc2-c2nn[nH]n2)cc1 (centres undefined) — outcome?
Ans: No

Q: How did this test come out for CCCCCCCCCCn1cc[n+](CCCCCCCCCC)c1C ?
Ans: Yes

Q: # fetch the recorded call for Oc1ccc(Cl)cc1Sc1cc(Cl)ccc1O here
Ans: No

====

# assayOverview: qHTS assay to identify small molecule antagonists of the androgen receptor (AR) signaling pathway - cell viability counter screen (AID 743033; note: nearly all actives have a fitted effect of over 45% in size)
# condition: AR-bla HEK293 viability, CellTiter-Glo luminescence, 16 h; series mostly up to 58.5 µM
Inconclusive results are not listed. Active and inactive are the calls of the source. Calls come from the whole dose curve; as a rule, active = well fitted cell-killing curve with a large enough effect in the repeat runs; inconclusive = weak or mixed curves; inactive = no such curve, though single readings can be large or run the other way.
Answer with one of the outcomes active, inactive

Example entries begin here.
Q: Answer briefly: the call reported for O=C(O)c1c(Cl)cccc1Cl in this assay.
Ans: inactive

Q: So what was the verdict on NC(=O)CC[C@@H]1NC(=O)[C@H](Cc2ccccc2)NC(=O)[C@H](Cc2ccc(O)cc2)NC(=O)CCSSC[C@@H](C(=O)N2CCC[C@H]2C(=O)N[C@@H](CCCN=C(N)N)C(=O)NCC(N)=O)NC(=O)[C@H](CC(N)=O)NC1=O in this test?
Ans: inactive

Q: Call for entry CCC(N)(CO)CO :
Ans: inactive

Q: Hi team, can someone confirm the assay call for CCC1=C[C@@H]2CN(C1)Cc1c([nH]c3ccccc13)[C@@](C(=O)OC)(c1cc3c(cc1OC)N(C)[C@H]1[C@@](O)(C(=O)OC)[C@H](OC(C)=O)[C@]4(CC)C=CCN5CC[C@]31[C@@H]54)C2 ?
Ans: inactive

Q: Record lookup: outcome of this test for OCCN(CCO)c1nc(N2CCCCC2)c2nc(N(CCO)CCO)nc(N3CCCCC3)c2n1 ?
Ans: inactive

Q: Hi, sorry to bother you, what did the test record for CC1=C(/C=C/C(C)=C/C=C/C(C)=C/C=O)C(C)(C)CCC1 ?
Ans: active

More entries:
Q: Called result for Oc1cc2ccccc2c2ccccc12
Ans: active

Q: So what was the verdict on Cc1cc(N)c(S(=O)(=O)O)cc1Cl in this test?
Ans: inactive

Q: I would be grateful if you could indicate the recorded call for CCCCCCC[N+](CC)(CC)CCCCc1ccc(Cl)cc1 .
Ans: inactive
